system: HeLa Kyoto; experiment: solubility change mitosis vs G1/S (difference of NP-40 vs SDS log2 ratios) (log2 ratio difference); higher = more soluble in mitosis
Recorded solubility change mitosis (log2) by entry
Response field accepts a number only; no unit should be typed.

Example results:
| substance | system.name | solubility change mitosis (log2) |
| --- | --- | --- |
| MASAGDTQAGPRDAADQNFDYMFKLLLIGNSSVGKTSFLFRYADDSFTPAFVSTVGIDFKVKTVYRHDKRIKLQIWDTAGQERYRTITTAYYRGAMGFLLMYDIANQESFAAVQDWATQIKTYSWDNAQVILVGNKCDLEDERVVPAEDGRRLADDLGFEFFEASAKENINVKQVFERLVDVICEKMNESLEPSSSSGSNGKGPAVGDAPAPQPSSCSC [RAB3D] | HeLa Kyoto | -0.109 |
| MAEYLASIFGTEKDKVNCSFYFKIGACRHGDRCSRLHNKPTFSQTIALLNIYRNPQNSSQSADGLRCAVSDVEMQEHYDEFFEEVFTEMEEKYGEVEEMNVCDNLGDHLVGNVYVKFRREEDAEKAVIDLNNRWFNGQPIHAELSPVTDFREACCRQYEMGECTRGGFCNFMHLKPISRELRRELYGRRRKKHRSRSRSRERRSRSRDRGRGGGGGGGGGGGGRERDRRRSRDRERSGRF [U2AF1] | HeLa Kyoto | 0.342 |
| LRPPRC | HeLa Kyoto | -0.118 |

Now for another entry.
Input MGTDSRAAKALLARARTLHLQTGNLLNWGRLRKKCPSTHSEELHDCIQKTLNEWSSQINPDLVREFPDVLECTVSHAVEKINPDEREEMKVSAKLFIVESNSSSSTRSAVDMACSVLGVAQLDSVIIASPPIEDGVNLSLEHLQPYWEELENLVQSKKIVAIGTSDLDKTQLEQLYQWAQVKPNSNQVNLASCCVMPPDLTAFAKQFDIQLLTHNDPKELLSEASFQEALQESIPDIQAHEWVPLWLLRYSVIVKSRGIIKSKGYILQAKRRGS [GCLM] . Output solubility change mitosis (log2): -0.0843

----------
tested on: HeLa Kyoto; experiment: melting temperature (median over replicates), in situ; higher = more thermally stable; conditions: cell cycle stage: G1/S
test.readout: melting temperature (°C)
# value in °C; strip the unit string

Per the record, MSQSKGKKRNPGLKIPKEAFEQPQTSSTPPRDLDSKACISIGNQNFEVKADDLEPIMELGRGAYGVVEKMRHVPSGQIMAVKRIRATVNSQEQKRLLMDLDISMRTVDCPFTVTFYGALFREGDVWICMELMDTSLDKFYKQVIDKGQTIPEDILGKIAVSIVKALEHLHSKLSVIHRDVKPSNVLINALGQVKMCDFGISGYLVDSVAKTIDAGCKPYMAPERINPELNQKGYSVKSDIWSLGITMIELAILRFPYDSWGTPFQQLKQVVEEPSPQLPADKFSAEFVDFTSQCLKKNSKERPTYPELMQHPFFTLHESKGTDVASFVKLILGD [MAP2K6] has melting temperature of 51.4

----------
system: HeLa Kyoto; assay: melting temperature (median over replicates), in situ; higher = more thermally stable; settings: cell cycle stage: G1/S
test.readout: melting temperature (°C)
// units = °C; emit number, no label

Please review the entries below; each comes with its answer.
| query.sequence | result |
| --- | --- |
| MSRYLRPPNTSLFVRNVADDTRSEDLRREFGRYGPIVDVYVPLDFYTRRPRGFAYVQFEDVRDAEDALHNLDRKWICGRQIEIQFAQGDRKTPNQMKAKEGRNVYSSSRYDDYDRYRRSRSRSYERRRSRSRSFDYNYRRSYSPRNSRPTGRPRRSRSHSDNDRFKHRNRSFSRSKSNSRSRSKSQPKKEMKAKSRSRSASHTKTRGTSKTDSKTHYKSGSRYEKESRKKEPPRSKSQSRSQSRSRSKSRSRSWTSPKSSGH [SRSF10] | 49.7 |
| MAAGQNGHEEWVGSAYLFVESSLDKVVLSDAYAHPQQKVAVYRALQAALAESGGSPDVLQMLKIHRSDPQLIVQLRFCGRQPCGRFLRAYREGALRAALQRSLAAALAQHSVPLQLELRAGAERLDALLADEERCLSCILAQQPDRLRDEELAELEDALRNLKCGSGARGGDGEVASAPLQPPVPSLSEVKPPPPPPPAQTFLFQGQPVVNRPLSLKDQQTFARSVGLKWRKVGRSLQRGCRALRDPALDSLAYEYEREGLYEQAFQLLRRFVQAEGRRATLQRLVEALEENELTSLAEDLLGLTDPNGGLA [TRADD] | 49.9 |
| MPSKSLVMEYLAHPSTLGLAVGVACGMCLGWSLRVCFGMLPKSKTSKTHTDTESEASILGDSGEYKMILVVRNDLKMGKGKVAAQCSHAAVSAYKQIQRRNPEMLKQWEYCGQPKVVVKAPDEETLIALLAHAKMLGLTVSLIQDAGRTQIAPGSQTVLGIGPGPADLIDKVTGHLKLY [PTRH2] | 52.3 |
| MSTAQSLKSVDYEVFGRVQGVCFRMYTEDEARKIGVVGWVKNTSKGTVTGQVQGPEDKVNSMKSWLSKVGSPSSRIDRTNFSNEKTISKLEYSNFSIRY [ACYP2] | 53.7 |
| MAAARHSTLDFMLGAKADGETILKGLQSIFQEQGMAESVHTWQDHGYLATYTNKNGSFANLRIYPHGLVLLDLQSYDGDAQGKEEIDSILNKVEERMKELSQDSTGRVKRLPPIVRGGAIDRYWPTADGRLVEYDIDEVVYDEDSPYQNIKILHSKQFGNILILSGDVNLAESDLAYTRAIMGSGKEDYTGKDVLILGGGDGGILCEIVKLKPKMVTMVEIDQMVIDGCKKYMRKTCGDVLDNLKGDCYQVLIEDCIPVLKRYAKEGREFDYVINDLTAVPISTSPEEDSTWEFLRLILDLSMKVLKQDGKYFTQGNCVNLTEALSLYEEQLGRLYCPVEFSKEIVCVPSYLELWVFYTVWKKAKP [SMS] | 56.6 |

Then there is this sequence:
The recorded melting temperature for MDCEVNNGSSLRDECITNLLVFGFLQSCSDNSFRRELDALGHELPVLAPQWEGYDELQTDGNRSSHSRLGRIEADSESQEDIIRNIARHLAQVGDSMDRSIPPGLVNGLALQLRNTSRSEEDRNRDLATALEQLLQAYPRDMEKEKTMLVLALLLAKKVASHTPSLLRDVFHTTVNFINQNLRTYVRSLARNGMD [BID] is 52.8
